molecular target: Beta-2 adrenergic receptor (Homo sapiens, UniProt P07550); assay: DRUGMATRIX: Adrenergic beta2 radioligand binding (ligand: [3H] CGP-12177); format: cell membranes, CHO, Membrane; conditions: Not Active = under 50% inhibition at 10 µM; read-out: Ki
Sequence (P07550 whole entry): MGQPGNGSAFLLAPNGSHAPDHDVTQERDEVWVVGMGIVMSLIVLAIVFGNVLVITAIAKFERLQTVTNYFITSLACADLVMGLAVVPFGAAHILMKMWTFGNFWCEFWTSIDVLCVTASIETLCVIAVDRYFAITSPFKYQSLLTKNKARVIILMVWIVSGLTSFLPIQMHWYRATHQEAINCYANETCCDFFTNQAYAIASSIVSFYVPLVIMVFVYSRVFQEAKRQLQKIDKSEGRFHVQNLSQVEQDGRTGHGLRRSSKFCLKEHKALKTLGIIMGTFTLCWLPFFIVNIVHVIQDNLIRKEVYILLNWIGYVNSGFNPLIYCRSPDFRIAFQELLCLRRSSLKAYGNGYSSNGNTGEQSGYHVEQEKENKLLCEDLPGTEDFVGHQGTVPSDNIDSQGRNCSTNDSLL
pKi: −log10 of the molar value.
EXPERIMENTAL READOUT: pKi

>  <SMILES REPR>
CC(C)(C)NC[C@H](O)COc1cccc2c1CCCC2=O

>  <EXPERIMENTAL READOUT>
pKi

>  <RECORDED RESULT>
9.26

$$$$

====

target: Prostaglandin G/H synthase 1 (Homo sapiens); test: biochemical; format: tissue-based, Platelet; settings: platelet; further: in other assays of this panel Not Active means under 50% inhibition at 10 µM
Sequence (P23219 whole entry): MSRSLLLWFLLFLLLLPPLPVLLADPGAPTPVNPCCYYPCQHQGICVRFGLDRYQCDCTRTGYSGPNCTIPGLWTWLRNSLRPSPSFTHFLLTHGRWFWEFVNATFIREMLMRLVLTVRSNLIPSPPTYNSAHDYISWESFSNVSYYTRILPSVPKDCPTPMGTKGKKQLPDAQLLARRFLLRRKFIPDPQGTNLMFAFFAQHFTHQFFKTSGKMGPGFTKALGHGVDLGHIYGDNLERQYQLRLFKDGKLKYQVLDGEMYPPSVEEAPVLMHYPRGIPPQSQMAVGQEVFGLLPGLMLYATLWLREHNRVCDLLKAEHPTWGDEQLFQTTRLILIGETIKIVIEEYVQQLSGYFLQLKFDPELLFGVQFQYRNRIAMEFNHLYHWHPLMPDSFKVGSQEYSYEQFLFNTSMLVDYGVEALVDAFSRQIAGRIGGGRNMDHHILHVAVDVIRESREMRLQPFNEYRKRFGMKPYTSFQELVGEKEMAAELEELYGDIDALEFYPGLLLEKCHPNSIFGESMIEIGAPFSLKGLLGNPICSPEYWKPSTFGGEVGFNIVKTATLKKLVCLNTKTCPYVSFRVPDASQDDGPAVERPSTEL
EXPERIMENTAL READOUT: IC50

>  <COMPOUND>
O=C1CN(/N=C/c2ccc([N+](=O)[O-])o2)C(=O)N1

>  <ASSAYED TARGET>
Prostaglandin G/H synthase 1 (Homo sapiens); further: in other assays of this panel Not Active means under 50% inhibition at 10 µM

>  <RECORDED RESULT>
Not Active

$$$$
>  <COMPOUND>
CC1=C(/C=C/C(C)=C/C=C/C(C)=C/C(=O)O)C(C)(C)CCC1

>  <ASSAYED TARGET>
Prostaglandin G/H synthase 1 (Homo sapiens); further: in other assays of this panel Not Active means under 50% inhibition at 10 µM

>  <RECORDED RESULT>
Not Active

$$$$
>  <COMPOUND>
O=C(NCCN1CCOCC1)c1ccc(Cl)cc1 [MOCLOBEMIDE]

>  <ASSAYED TARGET>
Prostaglandin G/H synthase 1 (Homo sapiens); further: in other assays of this panel Not Active means under 50% inhibition at 10 µM

>  <RECORDED RESULT>
Not Active

$$$$
>  <COMPOUND>
CC(Cl)(Cl)Cl

>  <ASSAYED TARGET>
Prostaglandin G/H synthase 1 (Homo sapiens); further: in other assays of this panel Not Active means under 50% inhibition at 10 µM

>  <RECORDED RESULT>
Not Active

$$$$
>  <COMPOUND>
c1ccc(Cn2ccnc2)cc1

>  <ASSAYED TARGET>
Prostaglandin G/H synthase 1 (Homo sapiens); further: in other assays of this panel Not Active means under 50% inhibition at 10 µM

>  <RECORDED RESULT>
Not Active

$$$$
>  <COMPOUND>
Cc1cccc(C)c1NC(=O)C(C)N (centres undefined) [TOCAINIDE]

>  <ASSAYED TARGET>
Prostaglandin G/H synthase 1 (Homo sapiens); further: in other assays of this panel Not Active means under 50% inhibition at 10 µM

>  <RECORDED RESULT>
Not Active

$$$$
>  <COMPOUND>
Nc1nc(N)c2nc(CNc3ccc(C(=O)N[C@@H](CCC(=O)O)C(=O)O)cc3)cnc2n1

>  <ASSAYED TARGET>
Prostaglandin G/H synthase 1 (Homo sapiens); further: in other assays of this panel Not Active means under 50% inhibition at 10 µM

>  <RECORDED RESULT>
Not Active

$$$$
>  <COMPOUND>
O=c1[nH]cnc2c1ncn2[C@H]1CC[C@@H](CO)O1

>  <ASSAYED TARGET>
Prostaglandin G/H synthase 1 (Homo sapiens); further: in other assays of this panel Not Active means under 50% inhibition at 10 µM

>  <RECORDED RESULT>
Not Active

$$$$
>  <COMPOUND>
C1CCN2C[C@@H]3C[C@@H](CN4CCCC[C@@H]34)[C@H]2C1

>  <ASSAYED TARGET>
Prostaglandin G/H synthase 1 (Homo sapiens); further: in other assays of this panel Not Active means under 50% inhibition at 10 µM

>  <RECORDED RESULT>
Not Active

$$$$
>  <COMPOUND>
CC12CCC(CC1=O)C2(C)C (centres undefined)

>  <ASSAYED TARGET>
Prostaglandin G/H synthase 1 (Homo sapiens); further: in other assays of this panel Not Active means under 50% inhibition at 10 µM

>  <RECORDED RESULT>
Not Active

$$$$
>  <COMPOUND>
CC(C)(c1ccc(O)cc1)c1ccc(O)cc1

>  <ASSAYED TARGET>
Prostaglandin G/H synthase 1 (Homo sapiens); further: in other assays of this panel Not Active means under 50% inhibition at 10 µM

>  <RECORDED RESULT>
Not Active

$$$$
>  <COMPOUND>
CO[C@@H]1[C@@H](OC)[C@H](C)[C@@](O)(CC(=O)O)O[C@H]1[C@H](C)[C@H]1O[C@@]2(CC[C@@](C)([C@H]3CC[C@@](C)([C@@H]4O[C@@H]([C@H]5O[C@](C)(O)[C@H](C)C[C@@H]5C)C[C@@H]4O[C@@H]4C[C@H](OC)[C@@H](OC)[C@H](C)O4)O3)O2)C[C@H](O)[C@H]1C.N

>  <ASSAYED TARGET>
Prostaglandin G/H synthase 1 (Homo sapiens); further: in other assays of this panel Not Active means under 50% inhibition at 10 µM

>  <RECORDED RESULT>
Not Active

$$$$
>  <COMPOUND>
C=C(Cl)Cl

>  <ASSAYED TARGET>
Prostaglandin G/H synthase 1 (Homo sapiens); further: in other assays of this panel Not Active means under 50% inhibition at 10 µM

>  <RECORDED RESULT>
Not Active

$$$$
>  <COMPOUND>
CC[C@H](C)C(=O)O[C@H]1CCC=C2C=C[C@H](C)[C@H](CC[C@@H]3C[C@@H](O)CC(=O)O3)[C@H]21

>  <ASSAYED TARGET>
Prostaglandin G/H synthase 1 (Homo sapiens); further: in other assays of this panel Not Active means under 50% inhibition at 10 µM

>  <RECORDED RESULT>
Not Active

$$$$
>  <COMPOUND>
CN(Cc1cc(Br)cc(Br)c1N)C1CCCCC1

>  <ASSAYED TARGET>
Prostaglandin G/H synthase 1 (Homo sapiens); further: in other assays of this panel Not Active means under 50% inhibition at 10 µM

>  <RECORDED RESULT>
Not Active

$$$$
>  <COMPOUND>
CCN(CCO)CCCC(C)Nc1ccnc2cc(Cl)ccc12 (centres undefined) [HYDROXYCHLOROQUINE]

>  <ASSAYED TARGET>
Prostaglandin G/H synthase 1 (Homo sapiens); further: in other assays of this panel Not Active means under 50% inhibition at 10 µM

>  <RECORDED RESULT>
Not Active

$$$$
>  <COMPOUND>
Cc1ccnc2c1NC(=O)c1cccnc1N2C1CC1

>  <ASSAYED TARGET>
Prostaglandin G/H synthase 1 (Homo sapiens); further: in other assays of this panel Not Active means under 50% inhibition at 10 µM

>  <RECORDED RESULT>
Not Active

$$$$
>  <COMPOUND>
CN(C)CCC=C1c2ccccc2COc2ccccc21 [DOXEPIN]

>  <ASSAYED TARGET>
Prostaglandin G/H synthase 1 (Homo sapiens); further: in other assays of this panel Not Active means under 50% inhibition at 10 µM

>  <RECORDED RESULT>
Not Active

$$$$
>  <COMPOUND>
CNC[C@H](O)c1ccc(O)c(O)c1 [EPINEPHRINE]

>  <ASSAYED TARGET>
Prostaglandin G/H synthase 1 (Homo sapiens); further: in other assays of this panel Not Active means under 50% inhibition at 10 µM

>  <RECORDED RESULT>
Not Active

$$$$
>  <COMPOUND>
C[C@]12CC[C@@H](O)C[C@@H]1CC[C@@H]1[C@@H]2CC[C@]2(C)C(=O)CC[C@@H]12

>  <ASSAYED TARGET>
Prostaglandin G/H synthase 1 (Homo sapiens); further: in other assays of this panel Not Active means under 50% inhibition at 10 µM

>  <RECORDED RESULT>
Not Active

$$$$
>  <COMPOUND>
Cl.NC[C@H]1CC[C@H](C(=O)Oc2ccc(CCC(=O)O)cc2)CC1 [CETRAXATE HYDROCHLORIDE]

>  <ASSAYED TARGET>
Prostaglandin G/H synthase 1 (Homo sapiens); further: in other assays of this panel Not Active means under 50% inhibition at 10 µM

>  <RECORDED RESULT>
Not Active

$$$$
>  <COMPOUND>
CO[C@@]12[C@H](COC(N)=O)C3=C(C(=O)C(C)=C(N)C3=O)N1C[C@@H]1N[C@@H]12

>  <ASSAYED TARGET>
Prostaglandin G/H synthase 1 (Homo sapiens); further: in other assays of this panel Not Active means under 50% inhibition at 10 µM

>  <RECORDED RESULT>
Not Active

$$$$
>  <COMPOUND>
Nc1nc(N)c2nc(-c3ccccc3)c(N)nc2n1

>  <ASSAYED TARGET>
Prostaglandin G/H synthase 1 (Homo sapiens); further: in other assays of this panel Not Active means under 50% inhibition at 10 µM

>  <RECORDED RESULT>
Not Active

$$$$
>  <COMPOUND>
Cc1ccc(S(=O)(=O)NC(=O)NN2CCCCCC2)cc1 [TOLAZAMIDE]

>  <ASSAYED TARGET>
Prostaglandin G/H synthase 1 (Homo sapiens); further: in other assays of this panel Not Active means under 50% inhibition at 10 µM

>  <RECORDED RESULT>
Not Active

$$$$
>  <COMPOUND>
OC[C@H]1O[C@@H]2O[C@H]3[C@H](O)[C@@H](O)[C@@H](O[C@H]4[C@H](O)[C@@H](O)[C@@H](O[C@H]5[C@H](O)[C@@H](O)[C@@H](O[C@H]6[C@H](O)[C@@H](O)[C@@H](O[C@H]7[C@H](O)[C@@H](O)[C@@H](O[C@H]8[C@H](O)[C@@H](O)[C@@H](O[C@H]1[C@H](O)[C@H]2O)O[C@@H]8CO)O[C@@H]7CO)O[C@@H]6CO)O[C@@H]5CO)O[C@@H]4CO)O[C@@H]3CO

>  <ASSAYED TARGET>
Prostaglandin G/H synthase 1 (Homo sapiens); further: in other assays of this panel Not Active means under 50% inhibition at 10 µM

>  <RECORDED RESULT>
Not Active

$$$$
>  <COMPOUND>
OC[C@H]1OC2C3[C@@H](CO)OC(O[C@H]4[C@H](O)[C@@H](O)[C@@H](O[C@H]5[C@H](O)[C@@H](O)[C@@H](O[C@H]6[C@H](O)[C@@H](O)[C@@H](O[C@H]7[C@H](O)[C@@H](O)[C@@H](O[C@H]8[C@H](O)[C@@H](O)[C@@H](O[C@H]9[C@H](O)[C@@H](O)C(OC1[C@H](O)[C@H]2O)O[C@@H]9CO)O[C@@H]8CO)O[C@@H]7CO)O[C@@H]6CO)O[C@@H]5CO)O[C@@H]4CO)[C@H](O)[C@H]3O

>  <ASSAYED TARGET>
Prostaglandin G/H synthase 1 (Homo sapiens); further: in other assays of this panel Not Active means under 50% inhibition at 10 µM

>  <RECORDED RESULT>
Not Active

$$$$
>  <COMPOUND>
CC(CN1c2ccccc2Sc2ccccc21)N(C)C (centres undefined)

>  <ASSAYED TARGET>
Prostaglandin G/H synthase 1 (Homo sapiens); further: in other assays of this panel Not Active means under 50% inhibition at 10 µM

>  <RECORDED RESULT>
Not Active

$$$$
>  <COMPOUND>
CC(N)C12CC3CC(CC(C3)C1)C2 (centres undefined)

>  <ASSAYED TARGET>
Prostaglandin G/H synthase 1 (Homo sapiens); further: in other assays of this panel Not Active means under 50% inhibition at 10 µM

>  <RECORDED RESULT>
Not Active

$$$$
>  <COMPOUND>
C[N+](C)(C)CCOC(N)=O.[Cl-]

>  <ASSAYED TARGET>
Prostaglandin G/H synthase 1 (Homo sapiens); further: in other assays of this panel Not Active means under 50% inhibition at 10 µM;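 further: inhibition of COX-1 enzyme activity, with arachidonic acid supplied as substrate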

>  <RECORDED RESULT>
Not Active

$$$$
